Each recorded value in this set is attributed to patent US20240092930A1.

# Kd per record follows
Biological target: T1, recombinant human Trop-2-his protein (ACCESSION NO.: NP_002344.2, AA 1-274) (human, UniProt P09758 27-274)
T1 construct: range 27-274; also called recombinant human Trop-2 protein; recombinant human Trop-2 extracellular domain; not shown: his tag
T1 sequence (looked up): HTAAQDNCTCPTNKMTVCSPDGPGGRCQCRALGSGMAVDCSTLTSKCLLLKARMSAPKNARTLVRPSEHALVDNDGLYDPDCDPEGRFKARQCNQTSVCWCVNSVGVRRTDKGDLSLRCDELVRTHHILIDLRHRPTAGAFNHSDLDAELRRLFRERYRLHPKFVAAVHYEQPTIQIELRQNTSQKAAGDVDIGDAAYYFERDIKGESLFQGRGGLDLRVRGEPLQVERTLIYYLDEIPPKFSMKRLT
Test: BLI, antibody on AHC sensor, Trop-2-his 60 nM
Description: 5-6 days after cell transfection, culture supernatants were purified through ProA affinity chromatography column to obtain different humanized antibodies. Affinities of the obtained antibodies were determined by an assay including capturing Fc fragments of the antibodies with anti-human IgG Fc capture (AHC) biosensors using Octet QKe system instrument from Fortebio. […]
State the answer as a number, implicitly in nM.

[Q] Which measured Kd value corresponds to h4-3-6 (antibody, human IgG1, kappa, V domains shown) VH: EVQLVQSGPEVKKPGASVKVSCKASGFTFTDYVIGWVRQAPGQGLEWIGEIYLGSGTIYYAEKFKGRVTMTADTSTSTAYMELSSLRSEDTAVYYCARGSIFPFDYWGQGTLVTVSS VL: DIQLTQSPSSLSASVGDRVTITCRASSSVSYMYWYQQKPGKAPKLLIYDTSTLASGVPSRFSGSGSGTDFTLTISSLQPEDFATYYCQQWSSYPYTFGQGTKLEIKR ?
[A] 0.397

Now consider the entry below.
[Q] What does the record list as Kd for chimeric antibody ch4-3 (antibody, human IgG1, V domains shown) VH: QVQLQQSGPELVKPGASVKMSCKASGFTFTDYVIGWVKQRTGQGLEWIGEIYLGSGTIYYTEKFKGKATLTADTSSNTAYMQLSSLTSEDSAVYFCARGSIFPFDYWGQGTTLTVSS VL: QIVLTQSPAIMSASPGEKVTMTCSASSSVSYMYWYQQKPGSSPRLLIYDTSTLASGVPVRFSGSGSGTSYSLTISRMEAEDAATYYCQQWSSYPYTFGGGTKLEIK ?
[A] 0.3
